SYSTEM: T1, Human OSM (human, UniProt P13725 26-221)
T1 construct: Recombinant human OSM; also called hOSM; human Oncostatin M
T1 sequence: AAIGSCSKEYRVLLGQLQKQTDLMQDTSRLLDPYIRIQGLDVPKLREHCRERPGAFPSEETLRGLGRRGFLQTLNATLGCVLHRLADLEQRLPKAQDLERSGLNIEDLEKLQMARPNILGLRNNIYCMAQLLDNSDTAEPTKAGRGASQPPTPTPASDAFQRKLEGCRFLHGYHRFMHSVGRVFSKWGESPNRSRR
ASSAY EXPLANATION: BIAcore kinetics, purified antibody
PROPERTY: kon (M⁻¹ s⁻¹)
Give your result in M⁻¹ s⁻¹ as a bare value.

Previously resolved entries follow.
-- ask Look at this binder and give its reported kon. 15E10h, non-competitive anti-OSM humanised antibody (antibody, human IgG1, kappa, V domains shown, also called Humanised 15E10; humanised 15E10) VH: QVQLVESGGGVVQPGRSLRLSCAASGFSLTNYGVHWVRQAPGKGLEWVAVIWRGGSTDYNAAFMSRFTISKDNSKNTLYLQMNSLRAEDTAVYYCAKSPNSNFYWYFDVWGRGTLVTVSS VL: EIVLTQSPATLSLSPGERATLSCSGSSSVSYMYWYQQKPGQAPRLLIEDTSNLASGIPARFSGSGSGTDYTLTISNLEPEDFAVYYCQQWSSYPPTFGQGTKLEIKR
-- reply 736000

-- ask Sample Humanised 10G8 H0(IGHV3-23)L1 (antibody, human IgG1, kappa, V domains shown, IgG1 kappa; also called H0(huCDRH1)L1; H0 (CDRH1 IGHV3_23) L1) VH: EVQLVESGGGLVQPGGSLRLSCAASGFTFSSYAMSWVRQAPGKGLEWVATISDGGSFTYYLDNVRGRFTISRDNAKNSLYLQMNSLRAEDTAVYYCARDVGHTTFWYFDVWGRGTLVTVSS VL: DIVMTQSPDSLAVSLGERATINCRASKSVSAAGYNFMHWYQQKPGQPPKVLIYYASNLESGVPDRFSGSGSGTDFTLTISSLQAEDVAVYYCLHSREFPFTFGGGTKVEIKR — what was its kon?
-- reply 709000

-- ask # query: kon of entry Humanised 10G8 H0L1 (antibody, human IgG1, kappa, V domains shown, IgG1 kappa; mature H0 heavy chain and mature L1 light chain; also called Humanised 10G8 H0L1 parent) VH: EVQLVESGGGLVQPGGSLRLSCAASGFTFSNYAMSWVRQAPGKGLEWVATISDGGSFTYYLDNVRGRFTISRDNAKNSLYLQMNSLRAEDTAVYYCARDVGHTTFWYFDVWGRGTLVTVSS VL: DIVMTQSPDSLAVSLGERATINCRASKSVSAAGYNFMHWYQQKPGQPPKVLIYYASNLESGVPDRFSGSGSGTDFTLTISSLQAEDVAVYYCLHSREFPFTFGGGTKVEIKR
-- reply 712000

Continuing:
-- ask Which value of kon has been reported for 10G8 chimaera (antibody, human IgG1, kappa, V domains shown, Mouse V regions on human gamma 1 wild type and human kappa constant regions; the entries called VH/VL domain (chimera) are full chains; also called 10G8 chimera; 10G8 Chimæra) VH: EMQLVESGEGLVEPGGSLKLSCAASGFTFSNYAMSWVRQTPEKSLEWVATISDGGSFTYYLDNVRGRFTISRDNAKNNLYLQMSHLKSDDTAMYYCARDVGHTTFWYFDVWGSGTLVTVSS VL: DIVLTQSPVFLVVSLGQRATISCRASKSVSAAGYNFMHWYQQKPGQPPKVLIKYASNLESGVPARFSGSGSGTDFTLNIHPVEEEDAVTYYCLHSREFPFTFGGGTNLEIKR in the records?
-- reply 427000
